Just for reference, BindingDB's records for doi:10.1111/cbdd.12463 is where these values come from.

Hi there, I'd appreciate the recorded pIC50 for every entry that follows.
experimental_target: Decaprenyl diphosphate synthase (Mycobacterium tuberculosis (strain CDC 1551 / Oshkosh))
Sequence (P9WFF6 whole entry): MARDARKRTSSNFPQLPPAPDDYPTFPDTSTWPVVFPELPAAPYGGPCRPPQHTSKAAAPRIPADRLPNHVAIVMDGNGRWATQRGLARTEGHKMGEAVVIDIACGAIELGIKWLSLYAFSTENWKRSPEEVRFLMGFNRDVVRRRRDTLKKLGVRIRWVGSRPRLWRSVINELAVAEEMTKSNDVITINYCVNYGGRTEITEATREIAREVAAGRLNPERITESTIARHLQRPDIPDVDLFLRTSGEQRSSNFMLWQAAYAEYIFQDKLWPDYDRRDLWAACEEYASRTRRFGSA
experiment_summary: DPPS Inhibition (trans FPP based) Assay
test_conditions: pH 7.5
Please express pIC50 as -log10 of the molar concentration.

INPUT: Entry CCCCCCCCCCCCOc1ccc[n+](CC(P(=O)(O)O)P(=O)(O)O)c1 [BPH-716] has what pIC50?
OUTPUT: 4.11

INPUT: Entry "O=P(O)(O)C(O)(Cc1cccc(-c2ccc(-c3ccccc3)cc2)c1)P(=O)(O)O" has what pIC50?
OUTPUT: 4.51

INPUT: Entry O=P(O)(O)C(C[n+]1ccc(-c2ccc(-c3ccccc3)cc2)cc1)P(=O)(O)O [BPH-632] has what pIC50?
OUTPUT: 3.30

INPUT: Entry O=P(O)(O)C(O)(Cc1ccc(-c2cccc(-c3ccccc3)c2)cc1)P(=O)(O)O [BPH-625] has what pIC50?
OUTPUT: 3.54

INPUT: Entry O=P(O)([CH2][Na])C(O)(Cc1ccc(-c2ccccc2)cc1)P(=O)(O)[CH2][Na] (stereo not given) [BPH-310] has what pIC50?
OUTPUT: 5.06

INPUT: Entry O=P(O)(O)C(O)(Cc1ccc(-c2ccc(-c3ccccc3)cc2)cc1)P(=O)(O)O [BPH-626] has what pIC50?
OUTPUT: 4.29

INPUT: Entry CCCCCCCCCCCCSc1ccccc1C(=O)O [BPH-940] has what pIC50?
OUTPUT: 3.90

INPUT: Entry "C=CC/C=C\C/C=C\CCCCCCCc1cccc(O)c1C(=O)O" has what pIC50?
OUTPUT: 3.55

INPUT: Entry "CCCCCCCCCCCCNCC(P(=O)(O)O)P(=O)(O)O" has what pIC50?
OUTPUT: 3.43

INPUT: Entry "O=P(O)(O)C(Nc1ccc(-c2ccccc2)cc1)P(=O)(O)O" has what pIC50?
OUTPUT: 5.34
